Assay: NCI Yeast Anticancer Drug Screen. Data for the sgs1 mgt1 strain (AID 161)
Conditions: S. cerevisiae sgs1 mgt1 strain, at 5.0 µM (retest, dose inferred, filed as 0.5)
This is part of a sample that, as a whole, favours compounds with a hit. Of some 79,000 tested, about 15% had one in any assay. Calls of active or inactive are those of the source. No stated cut-off is given here; in the data, active means growth inhibition above about 70%; inactive means the rest.
Use one of these outcomes when replying: Y (active), N (inactive)

These solved cases illustrate the format of a correct answer.
[[record]]
molecule = "O/N=C1\\c2ccccc2-c2ccc(Cl)cc21"
label_value = "N"

[[record]]
molecule = "COC(=O)CSc1nc2[nH]c(SC)c(C(N)=O)c2c(=O)n1-c1ccccc1"
label_value = "N"

[[record]]
molecule = "Cc1ccc(-n2c(CSc3ccc(Cl)cc3)nnc2SCc2nc3ccccc3[nH]2)cc1"
label_value = "N"

[[record]]
molecule = "CCSc1nc2ccc(N3C(=O)C=CC3=O)cc2s1"
label_value = "Y"


For the next question, use this molecule.
Exam item: What was the test verdict on COc1cc(C/C(=C/c2ccc(OC)c3occc23)[N+](=O)[O-])cc(OC)c1OC ?
Marked response: N

###

Assay: NCI Yeast Anticancer Drug Screen. Data for the rad50 strain (AID 155)
Conditions: S. cerevisiae rad50 strain growth inhibition; at 50.0 µM (retest, dose inferred, filed as 5.0); stronger effect = higher value
Experimental: Growth inhibition of yeast strains with defined genetic alterations is measured as a screen for potential anti-cancer activity. Selected strains with alterations in DNA damage repair or cell cycle control were exposed to compounds and growth inhibition was measured relative to vehicle treated controls. The strain used in this assay is rad50
About 79,000 compounds went through this panel and 15% of them were active in at least one assay; those are over-represented in the sample as a whole.
Categorize each record by its growth inhibition using one: < 50%; two: ≥ 50% and < 90%; three: ≥ 90%

These solved cases illustrate the format of a correct answer.
[[record]]
compound = "COc1cc2c(cc1O)-c1c(cnn1-c1ccccc1)CCC2"
label_value = "two"

[[record]]
compound = "C[N+](C)(C)CCN(Cc1cccs1)c1ccccn1"
label_value = "one"

[[record]]
compound = "OC1CCN(c2c3ccccc3nc3ccccc23)CC1"
label_value = "two"

[[record]]
compound = "O=[N+]([O-])c1ccc(CCCCc2ccc([N+](=O)[O-])cc2)cc1"
label_value = "one"

[[record]]
compound = "CCO/C=C1\\N=C(C(O)(c2ccc(Cl)cc2)c2ccc(Cl)cc2)OC1=O"
label_value = "one"


Exam item: Bin? O=C1/C(=C/c2ccc3c(c2)OCO3)Sc2scc(-c3ccc(O)c(O)c3)[n+]21
Marked response: three

Exam item: Bin? Cc1ccc(Oc2ccc(C(=O)C(CN(C)C)CN(C)C)cc2)cc1
Marked response: three

Exam item: Bin? CN(C)/N=N/c1nc(Cc2ccccc2)[nH]c1C(N)=O
Marked response: three

Exam item: Bin? Cc1nc2c(O)c3c(c(O)c2nc1C)C1C=CC3CC1
Marked response: two

Exam item: Bin? C=C1C(=O)C23CC[C@H]4C(C)(CCC[C@]4(C)C(=O)O)[C@@H]2CCC1C3 (stereo partly drawn)
Marked response: three

Exam item: Bin? COC(=O)c1n[nH]c(C(C)C)c1N=NN(C)C
Marked response: three

Exam item: Bin? [O-][n+]1c2ccccc2nc2cc(Cl)ccc21
Marked response: one

Exam item: Bin? CCC1(CC)COC(C)(C(=O)O)OC1
Marked response: one

Measured values drawn from PubChem BioAssay (NCI) for this set.
